- Test system: U2OS
- PROTOCOL_NOTES: Incucyte cell viability with U2OS; also: filed as whole numbers so only -1 and 0 and 1 occur
- Assay type: toxicity, cell-based
- PROTOCOL_CONDITIONS: human, 0 h, 10 µM, compound concentration 10 uM, replicate number 1, timepoint 0 hours
The entries below come with measured Growth Rate values attached.
Write the value as a bare number.

# COMPOUND, Growth Rate
rows = [
    ("COc1ccccc1C(=O)Nc1cc2c(cc1N1CCCC1)n(C)c(=O)n2C", 0),
    ("C[C@@H](NCCc1ccc(O)cc1)[C@@H](O)c1ccc(O)cc1.Cl (relative stereo)", 0),
    ("Cn1cc(-c2ccc3occ(-c4ccccc4-c4ccccc4)c3n2)cn1", 0),
]

Request: I have this compound here, COc1cc2c(NC3CCN(C(C)C)CC3)nc(N3CCC(F)(F)CC3)nc2cc1OCCCN1CCCC1 , and I need its recorded Growth Rate.
Response: 1

Request: Try this compound next: CNc1nc(Nc2cnn([C@H]3CCN(C4COC4)C[C@@H]3F)c2Cl)ncc1C(F)(F)F
Response: 1

Entry source: ChEMBL document CHEMBL4689842
